Exercise: for every item that follows, state its recorded protein stability index.
B1: PTPN9 (parent)
chain: IDFLRVVRNQQSLAVSNMGARSKG

- Variants of: B1
- protocol.details: protein stability index of a GFP-peptide fusion (GPS, HEK-293T) (PSI 1-6); higher = more stable;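 note: lentivirally expressed fusions sorted by FACS into six bins by GFP to DsRed ratio, PSI derived from sequencing read proportions per bin multiplied by bin number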
- condition.label: c terminus: a fixed tail appended

Illustrative cases are given below, each with its answer.
1. M18D: 3.05
2. M18Q: 2.73
3. Q11R: 2.31
4. A14Q: 2.09
5. V7R: 3.37

Could you now look at the following variant, please?
-- ask Any idea what its protein stability index is? The variant is A14R
-- reply 2.13

Data origin, for the record: the supplement of paper PMC10567573
